Attribution: a melting point compilation (Tetko et al.; mined from patent text by program, amines drawn as free bases though some values may be those of a salt)

Please respond with reported melting point for every item in the list.

[[record]]
compound = "CCS(=O)(=O)c1ccc(-c2nc(-c3nc4cc(OC)cc(OC)c4c(=O)[nH]3)ccc2OCCNC(C)C)cc1"
reported_result = "195 to 197 °C"

[[record]]
compound = "Nc1nc2ccccc2c2c1ncn2CCCCCCCCNC(=O)c1ccccc1"
reported_result = "133 to 137 °C"

[[record]]
compound = "O=C(NCCCn1ccnc1)c1ccccc1NS(=O)(=O)c1ccc(Cl)cc1"
reported_result = "175 to 177 °C"

[[record]]
compound = "O=C1c2ccccc2C(=O)N1CCCCOc1ccc(-c2ccncn2)cc1"
reported_result = "100 to 102 °C"

[[record]]
compound = "NCCn1cnc2c(N)nc3ccccc3c21"
reported_result = "265 °C"


Please supply melting point for each of the following items, keeping them in order.
1. Fc1ccc2[nH]cc(CC3CCN(CCOc4cccc5c4OCCO5)CC3)c2c1
2. N#Cc1cn(-c2ccc(F)cc2F)c(=O)n(SC(Cl)(Cl)Cl)c1=O
3. CC(C)[C@H](C[C@H](O)[C@H](C)NC(=O)OC(C)(C)C)C(=O)NCCCn1ccnc1
4. CCS(=O)(=O)Nc1cc(-c2ncnc(C(C)C)c2Cl)c(F)cc1C#N
5. Oc1ccc2cc(OCCN3CCC(Cc4ccccc4)CC3)ccc2c1
6. N[C@@H](Cc1cn(Cc2ccccc2)cn1)C(=O)O
7. CC1=C(c2ccccc2F)C(=O)N(C(C)(C)C(O)c2ccc(F)c(C)c2)CO1 (stereo unspecified)
8. O=C(O)c1cc(CO)ccc1O

**A:**
157 to 159 °C
196 to 198 °C
148 to 150 °C
160 to 162 °C
139 to 141 °C
234 to 238 °C
87.6 to 89 °C
108 to 110 °C

Provide melting point values for the following items, in order.
1. CC(=O)N(C)c1c(I)c(NC(=O)CCCCCCCC(=O)O)c(I)c(C(=O)O)c1I
2. O=C1CC2CCc3ccncc3C2=NN1c1ccc(C(F)(F)F)cc1 (stereo unspecified)

**A:**
205 to 208 °C
141 to 142 °C
